Each recorded value in this set is attributed to PubChem BioAssay AID1918946.

- Tested on: 885512-296-R-J2-PDC complex spheroid viability;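 further: spheroids exposed to agents for 7 days before viability read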
- Test Details: Anticancer human tumor 885512-296-R-J2-PDC patient-derived breast carcinoma cell line growth inhibition
- Cond: second compound 0.1 µM; first compound 0.03 µM; active compounds read low
Lab note - cut at 8% for viability, T/C: met if strictly below, not met if not.

[[record]]
molecule = "CCN(c1cc(-c2ccc(CN3CCOCC3)cc2)cc(C(=O)NCc2c(C)cc(C)[nH]c2=O)c1C)C1CCOCC1 + NC1CCC(NC2CC2c2ccccc2)CC1"
category = "not met"

[[record]]
molecule = "Nc1ccn(C2OC(CO)C(O)C2(F)F)c(=O)n1 (stereo unspecified) + NC1CC1c1ccc(-c2cccc(O)c2)cc1"
category = "met"

[[record]]
molecule = "Nc1ncn(C2CC(O)C(CO)S2)c(=O)n1 (stereo unspecified) + NC1CC1c1ccc(-c2cccc(O)c2)cc1"
category = "not met"

[[record]]
molecule = "COc1cc(C2c3cc4c(cc3C(OC3OC5COC(C)OC5C(O)C3O)C3COC(=O)C23)OCO4)cc(OC)c1O (stereo unspecified) + NC1CC1c1ccc(-c2cccc(O)c2)cc1"
category = "not met"

[[record]]
molecule = "COc1cc(C2c3cc4c(cc3C(OC3OC5COC(C)OC5C(O)C3O)C3COC(=O)C23)OCO4)cc(OC)c1O (stereo unspecified) + NC1CCC(NC2CC2c2ccccc2)CC1"
category = "not met"


Hello, I'm reviewing records and need to know if viability, T/C of CCc1c2c(nc3ccc(O)cc13)-c1cc3c(c(=O)n1C2)COC(=O)[C@]3(O)CC + NC1CCC(NC2CC2c2ccccc2)CC1 is below 8%. Could you check? met

Quick check: does CCN(c1cc(-c2ccc(CN3CCOCC3)cc2)cc(C(=O)NCc2c(C)cc(C)[nH]c2=O)c1C)C1CCOCC1 + NC1CC1c1ccc(-c2cccc(O)c2)cc1 have viability, T/C under 8%? not met

API: query returns whether the molecule falls strictly under 8% in viability, T/C. Query: Nc1ccccc1NC(=O)c1ccc(CNC(=O)OCc2cccnc2)cc1 + NC1CC1c1ccc(-c2cccc(O)c2)cc1 not met

Lab note: viability, T/C threshold 8%. Does this molecule come in strictly under it? Nc1ccn(C2OC(CO)C(O)C2(F)F)c(=O)n1 (stereo unspecified) + NC1CCC(NC2CC2c2ccccc2)CC1 not met

For O=C(C=Cc1cccc(S(=O)(=O)Nc2ccccc2)c1)NO + NC1CC1c1ccc(-c2cccc(O)c2)cc1 , is the recorded viability, T/C below the cut-off of 8%? not met

Decide: viability, T/C of O=C(C=Cc1cccc(S(=O)(=O)Nc2ccccc2)c1)NO + NC1CCC(NC2CC2c2ccccc2)CC1 strictly below 8%? not met

Hello, I'm reviewing records and need to know if viability, T/C of NS(=O)(=O)OCC1CC(n2ccc3c(NC4CCc5ccccc54)ncnc32)CC1O (stereo unspecified) + NC1CC1c1ccc(-c2cccc(O)c2)cc1 is below 8%. Could you check? met

Hi there! Is viability, T/C for Nc1ccccc1NC(=O)c1ccc(CNC(=O)OCc2cccnc2)cc1 + NC1CCC(NC2CC2c2ccccc2)CC1 below 8%, do you know? not met

Quick check: does CCc1c2c(nc3ccc(O)cc13)-c1cc3c(c(=O)n1C2)COC(=O)[C@]3(O)CC + NC1CC1c1ccc(-c2cccc(O)c2)cc1 have viability, T/C under 8%? met

# TODO verify viability, T/C < 8% strictly for this molecule: Nc1ncn(C2CC(O)C(CO)S2)c(=O)n1 (stereo unspecified) + NC1CCC(NC2CC2c2ccccc2)CC1 not met
